B1: EPB41L3 (parent)
chain: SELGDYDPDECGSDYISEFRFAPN

Variants of: B1
PROCEDURE SUMMARY: protein stability index of a GFP-peptide fusion (GPS, HEK-293T) (PSI 1-6); higher = more stable;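 also: lentivirally expressed fusions sorted by FACS into six bins by GFP to DsRed ratio, PSI derived from sequencing read proportions per bin multiplied by bin number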
STATED CONDITIONS: c terminus: a fixed tail appended
Assign T whenever protein stability index does not fall below 2; assign F whenever it does.

| VARIANT IDENTIFIER | ASSIGNED CATEGORY |
| --- | --- |
| F21P | T |
| E10T | F |
| E18T | F |
| C11N | T |
